Data origin: PubChem BioAssay (NCI)

What TGI was measured for each of the following?
Tested on: M19-MEL melanoma
Assay Text: NCI tumour cell line growth inhibition, 48 h

Sample records with TGI:
| Compound | TGI |
| --- | --- |
| CCOC(=O)C1=C(C)N2CCOC2(C)C(C(=O)OC)C1c1cccc(Cl)c1 (stereo not given) | > 100 µM |
| COc1ccc(-c2csc(=[N+]3CCCCC3)s2)cc1 | 11.4 µM |
| O=C(O)C(CO)N=Cc1nc(-c2ccccc2)oc1O (stereo not given) | > 100 µM |
| CC1(CO)OC(n2cnc3c(N)ncnc32)C(O)C1O (stereo not given) | > 100 µM |

Field: next compound
O=C1C2=C(C(c3ccccc3)=C1c1ccccc1)c1ccccc1C1(c3ccccc3)C2=C(O)C(c2ccccc2)=C1c1ccccc1 (stereo not given) yielded TGI of > 100 µM

----------
Tested on: UACC-257 melanoma
Assay Text: NCI tumour cell line growth inhibition, 48 h
Where a SMILES comes first, the peptide text is derived from it.
Parameter Measured: TGI (µM)
Numbers only, in µM.

Check out these entries, answers already filled in.
| Molecule | Experimental System | Units Label | TGI |
| --- | --- | --- | --- |
| CCC(C)C1NC(=O)C(CCCCN)NC(=O)C(CCCCN)NC(=O)C(CC(C)C)NC(=O)C(CCCCN)NC(=O)C(C(C)CC)NC(=O)C(C(C)C)NC(=O)C(C(C)CC)NC(=O)C(CCCCN)NC(=O)C(CCCCN)NC(=O)C(C)NC(=O)C(CCCCN)NC(=O)C(CC(C)C)NC1=O (configuration not stated) (cyclo(AKKIVIKLKKILK); configuration not given here) | UACC-257 melanoma | µM | 7.57 |
| CCOc1ccc(C2Oc3c(cccc3OC)C=C2[N+](=O)[O-])cc1OCC (configuration not stated) | UACC-257 melanoma | µM | 12.8 |

Continue with the next molecule.
Value of TGI reported for the molecule O=C1C=CC2(NN=C(c3ccccc3)N2c2ccccc2)c2cccc(O)c21 (configuration not stated) is 2.93

----------
System: SR leukemia
Assay Text: NCI tumour cell line growth inhibition, 48 h
Parameter Measured: GI50

// known answers, use as guide
| Smiles Text | Experimental System | GI50 |
| --- | --- | --- |
| O=S(=O)(Nc1cc(F)cc(F)c1)c1ccc(-c2cnc(C3CC3)o2)cc1 | SR leukemia | 513 nM |
| C#CC#CC#CC#CC#CC#CC#CC#CC[C@@H]1OC[C@H](COC(=O)O[C@@H](C(=O)O[C@H]2C[C@@]3(O)[C@@H](OC(=O)c4ccccc4)[C@@H]4[C@]5(OC(C)=O)CO[C@@H]5C[C@H](O)[C@@]4(C)C(=O)[C@H](OC(C)=O)C(=C2C)C3(C)C)[C@@H](NC(=O)c2ccccc2)c2ccccc2)O1 | SR leukemia | 862 nM |
| NS(=O)(=O)c1ccc(N=Nc2c(O)[nH]c3ccc(Cl)cc23)cc1 | SR leukemia | 6130 nM |

Turning now to a further molecule:
Known value: SR leukemia GI50 of the molecule "Cc1cccc(-n2cnc3cc(C(=O)N4CCCCC4)ccc32)c1" equals > 100000 nM

----------
System: SNB-75 CNS
Assay Text: NCI tumour cell line growth inhibition, 48 h
Parameter Measured: TGI

Look over these answered cases.
| Molecule | Reported Measurement |
| --- | --- |
| C/C(=N\Nc1nc2ccccc2o1)c1ccc2ccccc2n1 | 28 µM |
| CCOC(=O)C1=C(C)N2CCOC2(C)C(C(=O)OC)C1c1cccc(Cl)c1 (configuration not stated) | > 100 µM |
| O=c1oc2c([N+](=O)[O-])cc([N+](=O)[O-])cc2c2ccccc12 | > 100 µM |

Quick request: TGI for each listed item, please.
1. O=C1C2=C(C(c3ccccc3)=C1c1ccccc1)c1ccccc1C1(c3ccccc3)C2=C(O)C(c2ccccc2)=C1c1ccccc1 (configuration not stated)
2. CCCCCCCC/C(=C\C1=C(C)C(=O)C(OC)=C(OC)C1=O)C(=O)O
3. CCNCCNc1cc(-c2ccc(Cl)c(Cl)c2)c(C#N)c2nc3ccccc3n12
4. COCCOc1nc(-c2ccccc2)nc2ccccc12
5. COc1ccc(/C=C2\C(=O)NC(=O)c3ccccc32)cc1OC

["> 100 µM", "> 100 µM", "2.96 µM", "> 100 µM", "> 87.5 µM"]

----------
Assignment: determine reported TGI for the given compounds.
Tested on: MOLT-4 leukemia
Assay Text: NCI tumour cell line growth inhibition, 48 h

Illustrative cases are given below, each with its answer.
| Compound | TGI |
| --- | --- |
| CCN(CC)C(=S)SS(=O)(=O)c1ccc(N)cc1 | > 100 µM |
| Cc1cc(S(=O)(=O)N/C(=C(\C#N)C(=O)c2ccccc2)[n+]2ccc(N(C)C)cc2)c([S-])cc1Cl | > 100 µM |
| N#CC(NCCc1ccccc1)c1ccc(C(C#N)NCCc2ccccc2)cc1 (stereo not given) | > 100 µM |

Report TGI for every entry below.
1. COC(=O)[C@@H]1c2[nH]c3ccccc3c2C[C@@H]2c3ccccc3NC(=O)[C@@H]21
2. CCCCCC[n+]1noc(N)c1-c1ccc(-c2c(N)on[n+]2CCCCCC)cc1
3. O=C1c2ccccc2C(=O)c2nc3c(O)cccc3cc21
4. O=c1oc2c([N+](=O)[O-])cc([N+](=O)[O-])cc2c2ccccc12
5. CCOC(=O)c1ccc(O)cc1
6. Cc1ccc(S(=O)(=O)C2=C([Si](C)(C)C)C3CC2[C@@H]2C4C=CC(CC4)[C@H]32)cc1 (stereo not given in full)
7. O=c1[nH]c(=O)n(C2CC(O)C(CO)O2)cc1/C=C/Br (stereo not given)
8. Nc1nc2c3c(ncn3CC(O)CO2)n1 (stereo not given)

1: > 100 µM; 2: 7.33 µg/mL; 3: 23 µM; 4: > 100 µM; 5: > 100 µM; 6: > 100 µM; 7: > 100 µM; 8: > 100 µM

For every record below, what is its TGI?
1. Cc1ccc(S(=O)(=O)NC2CCCCO2)cc1 (stereo not given)
2. CN(C)CCNc1ccc2nnn3c4ccc(O)cc4c(=O)c1c23
3. CCCC(=O)Nc1ccc(O)c2c1C1CCCCCC21 (stereo not given)

["> 100 µM", "9.56 µM", "> 100 µM"]

// each compound listed below needs its TGI
1. O=C1c2ccccc2S(=O)(=O)N1CSC(=S)N1CCOCC1
2. CCC(C)C1NC(=O)C(NC(=O)C(CC(C)C)N(C)C(=O)[C@@H]2C=CCN2C(=O)[C@H](C)O)C(C)OC(=O)[C@H](Cc2ccc(OC)cc2)N(C)C(=O)[C@@H]2CCCN2C(=O)[C@H](CC(C)C)NC(=O)C(C)C(=O)[C@H](C(C)C)OC(=O)CC1O (stereo not given in full)
3. CCCCCCC1=NOC(C(c2cc[nH]c2)N(C)[C@H](C(=O)OC)C(C)C)C1 (stereo not given in full)
4. CCCCCCC(O)(c1ccc(F)cc1)C(CN1CCOCC1)c1ccccc1 (stereo not given)
5. CN(C)CCNC(=O)C1COc2cc(-c3cc(=O)c4ccccc4o3)ccc2O1 (stereo not given)
6. CCN(CC)c1c(C(=O)/C=C/c2ccc(F)cc2)c(-c2ccccc2)nn(C)c1=O

1: > 100 µM; 2: 0.00805 µM; 3: 62.7 µM; 4: 32.4 µM; 5: 40.7 µM; 6: 5.91 µM

----------
Task for the reader: assign each of the following compounds its reported TGI.
Tested on: SK-OV-3 ovarian
Assay Text: NCI tumour cell line growth inhibition, 48 h

| Compound | Experimental System | TGI |
| --- | --- | --- |
| c1ccc2c(c1)N[C@@H]1c3[nH]c4ccccc4c3CC[C@H]21 | SK-OV-3 ovarian | 36.7 µM |
| Cc1ccc(I)cc1N=C=S | SK-OV-3 ovarian | > 100 µM |
| CCCC(=O)Nc1ccc(O)c2c1C1CCCCCC21 (stereo not given) | SK-OV-3 ovarian | > 100 µM |

Batch of 2 compounds: report TGI for each.
1. CCCCc1ccc(Nc2nc3c(ncn3COCCBr)c(=O)[nH]2)cc1
2. COc1ccc(/C=C/C(=O)Nc2cc(/C=C\c3cc(OC)c(OC)c(OC)c3)cc(OC)c2OC)cc1OC

1. > 100 µM
2. 8.48 µM

Batch of 5 compounds: report TGI for each.
1. COc1ccc(/C=C/C(=O)c2sc(Nc3ccc([N+](=O)[O-])cc3)nc2C)cc1
2. CC(C)(C)OC(=O)N(CCCN)CCCCN
3. C#CC#CC#CC#CC#CC#CC#CC#CC[C@@H]1OC[C@H](COC(=O)O[C@@H](C(=O)O[C@H]2C[C@@]3(O)[C@@H](OC(=O)c4ccccc4)[C@@H]4[C@]5(OC(C)=O)CO[C@@H]5C[C@H](O)[C@@]4(C)C(=O)[C@H](OC(C)=O)C(=C2C)C3(C)C)[C@@H](NC(=O)c2ccccc2)c2ccccc2)O1
4. CNC(=O)c1ccc(C(=O)NCCCCCN(O)C(=O)CCC(=O)NCCCCCN(O)C(=O)CCC(=O)NCCCCCN(O)C(C)=O)c(O)c1O
5. CC1(c2ccc(Cl)cc2)NC(=NCCO)c2ccccc21 (stereo not given)

> 100 µM
> 100 µM
> 25 µM
> 100 µM
> 100 µM
